- Procedure details: Comparison of half-life in plasma of native CNP-22, native CNP-53 and chimeric CNP (Example 12)
- Test conditions: male, SD, rat, in vivo, iv, 20 nmol/kg, T½ Mean Value, Joint Use with NEP Inhibitor: yes (DL-Thiorphan); intravenous, male rats, N = 3

{"Compound": "CC[C@H](C)[C@@H]1NC(=O)[C@H](CCCNC(=N)N)NC(=O)[C@H](CC(=O)O)NC(=O)[C@H](CC(C)C)NC(=O)[C@H](CCCCN)NC(=O)[C@H](CC(C)C)NC(=O)CNC(=O)[C@H](Cc2ccccc2)NC(=O)[C@@H](NC(=O)CNC(=O)[C@H](CCCCN)NC(=O)[C@H](CO)NC(=O)[C@H](CC(C)C)NC(=O)CN)CSSC[C@@H](C(=O)O)NC(=O)CNC(=O)[C@H](CC(C)C)NC(=O)CNC(=O)[C@H](CO)NC(=O)[C@H](CCSC)NC(=O)[C@H](CO)NC(=O)CNC1=O [Native CNP-22]", "half-life [min]": 16.2}

* * *

- Procedure details: CNP immunoreactivity concentration in plasma after administration to rats (competitive RIA), pharmacokinetic parameters (Example 2)
- Assay type: in vivo, rat
- Test conditions: rat, plasma, sc; subcutaneous, 0.1 mg/kg, male rats, N = 3, mean ± SD

{"Substance smiles": "CC[C@H](C)[C@@H]1NC(=O)[C@H](CCCNC(=N)N)NC(=O)[C@H](CC(=O)O)NC(=O)[C@H](CC(C)C)NC(=O)[C@H](CCCCN)NC(=O)[C@H](CC(C)C)NC(=O)CNC(=O)[C@H](Cc2ccccc2)NC(=O)[C@@H](NC(=O)CNC(=O)[C@H](CCCCN)NC(=O)[C@H](CO)NC(=O)[C@H](CC(C)C)NC(=O)CN)CSSC[C@@H](C(=O)O)NC(=O)CNC(=O)[C@H](CC(C)C)NC(=O)CNC(=O)[C@H](CO)NC(=O)[C@H](CCSC)NC(=O)[C@H](CO)NC(=O)CNC1=O", "AUC(0-inf), ng·h/mL": 17.7}

* * *

- Study target: NEP (Rattus norvegicus)
- Construct: male SD strain rats of 7 weeks age (Nippon Charles River; body weight: ca. 250 g) were used; from tissue; host or cells: whole animal: male SD rats (Nippon Charles River), in vivo
- Sequence (P07861 1-750): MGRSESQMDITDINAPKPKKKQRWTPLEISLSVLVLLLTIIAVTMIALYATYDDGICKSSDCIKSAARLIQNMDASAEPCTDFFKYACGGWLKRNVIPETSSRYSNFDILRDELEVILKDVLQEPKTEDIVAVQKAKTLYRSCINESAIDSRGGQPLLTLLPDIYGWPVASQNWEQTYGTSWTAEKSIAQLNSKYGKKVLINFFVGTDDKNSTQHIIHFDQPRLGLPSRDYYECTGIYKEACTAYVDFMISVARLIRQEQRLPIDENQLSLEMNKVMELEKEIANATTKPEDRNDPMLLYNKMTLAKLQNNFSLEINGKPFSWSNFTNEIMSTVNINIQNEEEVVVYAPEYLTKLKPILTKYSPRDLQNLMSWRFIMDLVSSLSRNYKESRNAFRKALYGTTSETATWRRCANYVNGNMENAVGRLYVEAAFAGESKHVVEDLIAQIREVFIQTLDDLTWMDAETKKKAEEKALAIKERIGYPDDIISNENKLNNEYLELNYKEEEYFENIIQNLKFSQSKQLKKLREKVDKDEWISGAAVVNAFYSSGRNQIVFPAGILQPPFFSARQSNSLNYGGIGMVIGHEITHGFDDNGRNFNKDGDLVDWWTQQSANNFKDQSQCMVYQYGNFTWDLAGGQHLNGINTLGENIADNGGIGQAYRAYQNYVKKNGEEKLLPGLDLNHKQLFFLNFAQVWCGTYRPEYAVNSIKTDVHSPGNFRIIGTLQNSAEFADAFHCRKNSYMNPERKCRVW
- Procedure details: NEP resistance in vivo: influence of NEP inhibitor on pharmacokinetic parameters after intravenous administration
- Test conditions: male, SD, rat, in vivo, iv, 0.02 mg/kg, NEP Inhibitor (−), intravenous 0.02 mg/kg, male rats, N = 3; read-out: AUC0→∞ (converted)

{"Substance smiles": "CC[C@H](C)[C@@H]1NC(=O)[C@H](CCCNC(=N)N)NC(=O)[C@H](CC(=O)O)NC(=O)[C@H](CC(C)C)NC(=O)[C@H](CCCCN)NC(=O)[C@H](CC(C)C)NC(=O)CNC(=O)[C@H](Cc2ccccc2)NC(=O)[C@@H](NC(=O)CNC(=O)[C@H](CCCCN)NC(=O)[C@H](CO)NC(=O)[C@H](CC(C)C)NC(=O)CN)CSSC[C@@H](C(=O)O)NC(=O)CNC(=O)[C@H](CC(C)C)NC(=O)CNC(=O)[C@H](CO)NC(=O)[C@H](CCSC)NC(=O)[C@H](CO)NC(=O)CNC1=O", "AUC(0-inf) / ng·h/mL": 3.37}
